# Test system: A498
# methodNotes: NCI tumour cell line growth inhibition, 48 h
The source made the active and inactive calls. Cut-off read from the data, not from the text of the source: active = GI50 up to about 1.1 µM and inactive = higher.
The following molecules are shown together with reported GI50 values.

testSmiles | GI50
CC1(C)[C@H]2Cc3cc(-c4cc5c(cn4)[C@@H]4C[C@H]([C@@H]5[C@@H]5c6cc(-c7cc8c(cn7)[C@@H]7C[C@H](C8)C7(C)C)ncc6[C@@H]6C[C@H]5C6(C)C)C4(C)C)ncc3[C@@H]1C2 | > 100 µM (inactive)
CCOC(=O)C1(C(=O)OCC)C[C@]23OCCC(=O)[C@H]2[C@H]2C(=O)OC(C)(C)O[C@]23C1 | > 100 µM (inactive)

Okay, next one:
stdin: Can you share its GI50? I mean this molecule: COc1ccc2nc3cc(Cl)ccc3c(NCCNC(=O)Cn3c(=O)n(C)c(=O)c4c3nc3c(c(=O)n(C)c(=O)n3C)[n+]4[O-])c2c1
stdout: > 60.4 µM (inactive)
